These data points were gathered from ChEMBL document CHEMBL4364280.

Measured pKi, listed per entry.
- SYSTEM: 5-hydroxytryptamine receptor 1A (Homo sapiens, UniProt P08908)
- Sequence (P08908 whole entry): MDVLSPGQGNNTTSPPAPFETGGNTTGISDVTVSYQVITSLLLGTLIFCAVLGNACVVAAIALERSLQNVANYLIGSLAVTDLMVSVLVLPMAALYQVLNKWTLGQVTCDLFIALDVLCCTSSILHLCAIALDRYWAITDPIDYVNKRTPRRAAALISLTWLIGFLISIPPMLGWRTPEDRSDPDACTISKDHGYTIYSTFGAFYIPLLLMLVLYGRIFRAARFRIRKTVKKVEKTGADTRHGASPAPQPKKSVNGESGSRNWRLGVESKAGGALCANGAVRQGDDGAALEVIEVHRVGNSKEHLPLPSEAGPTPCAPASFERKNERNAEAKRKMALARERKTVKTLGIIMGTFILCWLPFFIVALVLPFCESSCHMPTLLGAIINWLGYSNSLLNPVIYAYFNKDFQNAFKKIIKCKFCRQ
Quick note: pKi means taking -log10 of the concentration in moles per liter.

Sample CN1CCN(c2nc(N)nc(CSc3ccccc3Cl)n2)CC1 ; pKi observed: 5.77

Note to self: pKi recorded for CC(Sc1ccccc1Cl)c1nc(N)nc(N2CCN(C)CC2)n1 (stereo not given) was 5.47

Form field pKi, entry CN1CCN(c2nc(N)nc(CSc3ccccc3)n2)CC1 : 5.36

According to the records, this compound CN1CCN(c2nc(N)nc(COc3cccc(Cl)c3)n2)CC1 displays pKi of 5.12

CC(Oc1ccccc1Cl)c1nc(N)nc(N2CCN(C)CC2)n1 (stereo not given) yielded pKi of 5.34
